System: human T lymphoblast cell line (Jurkat)
Test: Inhibition of T-cell proliferation (Jurkat, 3H-TdR incorporation)
Format: cell-based
Settings: Homo sapiens; Jurkat cells, 3 days culture, 3H-TdR pulse last 4 hours
Method: Inhibition of T cell proliferation was studied in a functional assay. A human T lymphoblast cell line (Jurkat) was cultured in the presence and absence, respectively, of DHODH inhibiting compounds. […] The inhibition of T cell proliferation was studied in a human T lymphoblast cell line (Jurkat). The IC50 value for each compound was calculated from the dose response curve. […]
property: IC50 (nM)
Reply with just the number (in nM).

Solved cases below.
[
  {
    "compound": "COc1ccc(OC)c(CCc2ccc(NC(C)=O)c(C(=O)O)c2)c1 [REF 9, reference compound]",
    "IC50 [nM]": 12000
  },
  {
    "compound": "CCC(=O)Nc1ccc(/C=C/c2ccc(F)cc2C(F)(F)F)cc1C(=O)O [INV 12]",
    "IC50 [nM]": 160
  },
  {
    "compound": "CCC(=O)Nc1ccc(/C=C/c2ccc(Cl)cc2C(F)(F)F)cc1C(=O)O [INV 13]",
    "IC50 [nM]": 50
  },
  {
    "compound": "CCC(=O)Nc1ccc(COc2ccc(C(F)(F)F)cc2Br)cc1C(=O)O [INV 7]",
    "IC50 [nM]": 490
  },
  {
    "compound": "CCC(=O)Nc1ccc(COc2ccc(F)c(C(F)(F)F)c2)cc1C(=O)O [INV 17]",
    "IC50 [nM]": 530
  }
]

Hello, I am looking for reported IC50 with human T lymphoblast cell line (Jurkat) for CCC(=O)Nc1ccc(OCc2ccc(Cl)cc2C(F)(F)F)cc1C(=O)O [INV 29] . Could you help? 570

Quick check: IC50 on human T lymphoblast cell line (Jurkat), item COc1ccc(OC)c(COc2ccc(NC(C)=O)c(C(=O)O)c2)c1 [REF 8, reference compound] ? 6200

Recorded IC50 for CCC(=O)Nc1ccc(/C=C/c2ccc(C(F)(F)F)cc2C(F)(F)F)cc1C(=O)O [INV 11] with human T lymphoblast cell line (Jurkat), please? 90

Item: CCC(=O)Nc1ccc(/C=C/c2ccc(F)cc2F)cc1C(=O)O [INV 14] Test system: human T lymphoblast cell line (Jurkat) Read-out: IC50 Value: ? 240

Form entry - test system: human T lymphoblast cell line (Jurkat); read-out: IC50; compound: CCC(=O)Nc1ccc(/C=C/c2ccc(Cl)c(C(F)(F)F)c2)cc1C(=O)O [INV 24] 570

* * *

Experiment: Metabolic stability in human liver microsomes
Assay type: in vitro ADME
Settings: human liver microsomes, 0.5 μM compound, 1 mg/mL protein, 1 mM NADPH, pH 7.4, 37° C.; "stable" = no degradation could be confirmed
property: half-life at 0.5 μM
Respond with a number, then the unit of measure.

Name the reported half-life at 0.5 μM value associated with the compound CCC(=O)Nc1ccc(/C=C/c2ccc(Cl)cc2Cl)cc1C(=O)O 1.83 h

Consider the compound shown here: CCC(=O)Nc1ccc(COc2ccc(F)cc2C(F)(F)F)cc1C(=O)O What is its recorded half-life at 0.5 μM? 3.93 h

* * *

Recorded pIC50 for the following molecules
Tested on: human T lymphoblast cell line (Jurkat)
Test: Inhibition of T-cell proliferation (Jurkat, 3H-TdR incorporation)
Type: cell-based
Conditions: Homo sapiens; Jurkat cells, 3 days culture, 3H-TdR pulse last 4 hours
# reply with the number alone; pIC50 is -log10 of concentration in mol/L

State the recorded pIC50 for this entry: CCC(=O)Nc1ccc(/C=C/c2ccc(F)c(Cl)c2)cc1C(=O)O 6.12

# input molecule: CCC(=O)Nc1ccc(COc2ccc(F)cc2Br)cc1C(=O)O ; wanted: its pIC50 6.44

Item CCC(=O)Nc1ccc(COc2ccc(OC(F)(F)F)cc2Cl)cc1C(=O)O has what recorded pIC50? 6.62

Which pIC50 value belongs to CCC(=O)Nc1ccc(/C=C/c2ccc(Cl)cc2Cl)cc1C(=O)O ? 7.70

pIC50 lookup needed for CCC(=O)Nc1ccc(COc2ccc(C(F)(F)F)cc2Cl)cc1C(=O)O , thanks. 6.38

* * *

Below, each entry is listed alongside its reported half-life at 0.5 μM.
Assay: Metabolic stability in human liver microsomes
Assay type: in vitro ADME
Details: human liver microsomes, 0.5 μM compound, 1 mg/mL protein, 1 mM NADPH, pH 7.4, 37° C.; "stable" = no degradation could be confirmed
Reply numerically in h, unit not repeated.

[
  {
    "smilesStructure": "CCC(=O)Nc1ccc(OCc2ccc(Cl)cc2C(F)(F)F)cc1C(=O)O",
    "reading": 1.83
  },
  {
    "smilesStructure": "O=C(O)c1cc(OCc2ccc(Br)cc2C(F)(F)F)ccc1NC(=O)C1CC1",
    "reading": 3.87
  },
  {
    "smilesStructure": "CCC(=O)Nc1ccc(/C=C/c2ccc(F)cc2C(F)(F)F)cc1C(=O)O",
    "reading": 2.65
  },
  {
    "smilesStructure": "CCC(=O)Nc1ccc(COc2ccc(OC(F)(F)F)c(Br)c2)cc1C(=O)O",
    "reading": 3.3
  },
  {
    "smilesStructure": "CCC(=O)Nc1ccc(/C=C/c2ccc(Cl)c(C(F)(F)F)c2)cc1C(=O)O",
    "reading": 5.75
  }
]

Return reported half-life at 0.5 μM; argument: CCC(=O)Nc1ccc(COc2ccc(Cl)cc2Cl)cc1C(=O)O 3.32

Would you mind telling me what half-life at 0.5 μM value was observed for CCC(=O)Nc1ccc(COc2ccc(F)cc2Cl)cc1C(=O)O ? 5.38

Give the measured half-life at 0.5 μM of CCC(=O)Nc1ccc(/C=C/c2ccc(F)cc2Cl)cc1C(=O)O . 2.28

I'd like to know its half-life at 0.5 μM. The compound in question is CCC(=O)Nc1ccc(COc2ccc(OC(F)(F)F)c(Cl)c2)cc1C(=O)O 2.8

What does the record list as half-life at 0.5 μM for CCC(=O)Nc1ccc(COc2ccc(F)cc2Br)cc1C(=O)O ? 5.33

* * *

Each item that follows carries a reported pIC50.
System: human T lymphoblast cell line (Jurkat)
Test: Inhibition of T-cell proliferation (Jurkat, 3H-TdR incorporation)
Assay type: cell-based
Conditions: Homo sapiens; Jurkat cells, 3 days culture, 3H-TdR pulse last 4 hours
Interpret pIC50 as the negative base-10 log of the concentration measured in mol/L.

[
  {
    "compound": "CCC(=O)Nc1ccc(/C=C/c2ccc(Cl)c(Cl)c2)cc1C(=O)O",
    "pIC50": 6.32
  }
]

GET /values?readout=pIC50&system=human T lymphoblast cell line (Jurkat)&item= CCC(=O)Nc1ccc(/C=C/c2ccc(C(F)(F)F)c(F)c2)cc1C(=O)O 6.13

Identify the measured pIC50 of CCC(=O)Nc1ccc(OCc2ccccc2C(F)(F)F)cc1C(=O)OC [REF 10, reference compound] for human T lymphoblast cell line (Jurkat). 4.91

# query: pIC50 | item CCC(=O)Nc1ccc(COc2ccc(C(F)(F)F)cc2C(F)(F)F)cc1C(=O)O | system: human T lymphoblast cell line (Jurkat) 6.22

Write down the reported pIC50 of CCC(=O)Nc1ccc(COc2ccc(OC(F)(F)F)c(Br)c2)cc1C(=O)O , test system: human T lymphoblast cell line (Jurkat). 6.15

Request - read-out pIC50 | tested on human T lymphoblast cell line (Jurkat) | compound CCC(=O)Nc1ccc(COc2ccc(OC(F)(F)F)c(Cl)c2)cc1C(=O)O 6.05

Recall the recorded pIC50 for CCC(=O)Nc1ccc(/C=C/c2ccc(F)c(C(F)(F)F)c2)cc1C(=O)O with human T lymphoblast cell line (Jurkat) and state it. 6.12

Form field - read-out: pIC50; system: human T lymphoblast cell line (Jurkat); submitted item: CCC(=O)Nc1ccc(COc2ccc(Br)cc2C(F)(F)F)cc1C(=O)O 6.33

Tell me reported pIC50 for CCC(=O)Nc1ccc(/C=C/c2ccc(OC(F)(F)F)c(Cl)c2)cc1C(=O)O , tested with human T lymphoblast cell line (Jurkat). 6.22

* * *

Test: Metabolic stability in human liver microsomes
Assay type: in vitro ADME
Conditions: human liver microsomes, 0.5 μM compound, 1 mg/mL protein, 1 mM NADPH, pH 7.4, 37° C.; "stable" = no degradation could be confirmed
Binary classification by half-life at 0.5 μM, with 2 h as an inclusive lower bound for Satisfied; all other cases are Not satisfied.

Sample answers from the record:
[
  {
    "smilesStructure": "CCC(=O)Nc1ccc(COc2ccc(Br)cc2C(F)(F)F)cc1C(=O)O",
    "assignedClass": "Satisfied"
  },
  {
    "smilesStructure": "CCC(=O)Nc1ccc(/C=C/c2ccc(Cl)cc2C(F)(F)F)cc1C(=O)O",
    "assignedClass": "Not satisfied"
  },
  {
    "smilesStructure": "CCC(=O)Nc1ccc(/C=C/c2ccc(F)c(Cl)c2)cc1C(=O)O",
    "assignedClass": "Not satisfied"
  },
  {
    "smilesStructure": "CCC(=O)Nc1ccc(/C=C/c2ccc(F)c(C(F)(F)F)c2)cc1C(=O)O",
    "assignedClass": "Satisfied"
  }
]

Check if half-life at 0.5 μM >= 2 h (inclusive). Item: CCC(=O)Nc1ccc(COc2ccc(C(F)(F)F)cc2Br)cc1C(=O)O Satisfied

Does the reported half-life at 0.5 μM for CCC(=O)Nc1ccc(COc2ccc(Cl)c(C(F)(F)F)c2)cc1C(=O)O fall at or above the 2 h mark? Satisfied

Does CCC(=O)Nc1ccc(COc2ccc(Cl)cc2Br)cc1C(=O)O have a reported half-life at 0.5 μM of at least 2 h? Satisfied

Threshold query (half-life at 0.5 μM >= 2 h) on CCC(=O)Nc1ccc(COc2ccc(F)c(Cl)c2)cc1C(=O)O Not satisfied

Please check the record CCC(=O)Nc1ccc(COc2ccc(Br)c(Cl)c2)cc1C(=O)O and state if its half-life at 0.5 μM is at or above 2 h. Not satisfied
